Values compiled from PubChem BioAssay (EPA / NIEHS).

read-out: Tumor necrosis factor receptor 1 (TNFRSF1A), TNFRSF1A (gene 7132); test: LTEA_HepaRG_TNFRSF1A: Life Technologies and Expression Analysis (LTEA) Assay for Tumor necrosis factor receptor 1 (TNFRSF1A) using HepaRG (AID 2283535); conditions: mRNA level, 48 h; actives raise or lower the signal
Activity calls are given as the source filed them. How the source made its calls: active means hit-call score of the fitted dose curve at least 0.9, where 1 is the maximum; inactive means score below 0.9.
Outcome codes: class 1 (active), class 0 (inactive)

* CCOCCOC(C)=O | class 0
* ClC1=C(Cl)[C@]2(Cl)[C@@H]3[C@@H](Cl)[C@H]4O[C@H]4[C@@H]3C1(Cl)C2(Cl)Cl | class 0
* Cc1cc2c3c(c1)C(c1ccccc1)=N[C@@H](NC(=O)c1ccncc1)C(=O)N3CC2 | class 0
* O=S(=O)(O)C(F)(F)C(F)(F)C(F)(F)C(F)(F)C(F)(F)C(F)(F)F | class 0
* Cc1ccccc1O | class 0
* CCOP(=S)(OCC)SCSC(C)(C)C | class 0
* CCC(C)(c1ccc(O)cc1)c1ccc(O)cc1 | class 0
* Cc1cccc([N+](=O)[O-])c1 | class 0
* CCCN(CCC)N=O | class 0
* CCC(=O)O[C@H]1CC[C@H]2[C@@H]3CCC4=CC(=O)CC[C@]4(C)[C@H]3CC[C@]12C | class 0
* CCCCCCCCCC[N+](C)(C)CCCCCCCCCC | class 1
* Nc1ccc(-c2ccc(N)cc2)cc1 | class 0
* CC#Cc1cc(C)nc(Nc2ccccc2)n1 | class 0

---

molecular target: human Acetylcholinesterase (AChE), ACHE (gene 43); assay: NVS_ENZ_hAChE: NovaScreen (NVS) Enzymatic Assay for human Acetylcholinesterase (AChE) (AID 2283129)
Inconclusive results are not listed. Active and inactive are the calls of the source. The calls were made as follows: active = hit-call score of the fitted dose curve at least 0.9, where 1 is the maximum; inconclusive = response in the unintended direction; inactive = score below 0.9.
Classes used: active, inactive

* C[C@]12CCC(=O)C=C1CC[C@@H]1[C@@H]2CC[C@]2(C)C(=O)CC[C@@H]12 | inactive
* Oc1ccc(C(c2ccc(O)cc2)(C(F)(F)F)C(F)(F)F)cc1 | inactive
* CCCCCCCCCC[N+](C)(C)CCCCCCCCCC | active
* CCCCCCCCOC(=O)c1ccccc1C(=O)OCCCCCCCC | inactive

---

Read-out: Fatty acid synthase (Homo sapiens) (UniProt P49327)
Sequence (P49327 whole entry, looked up): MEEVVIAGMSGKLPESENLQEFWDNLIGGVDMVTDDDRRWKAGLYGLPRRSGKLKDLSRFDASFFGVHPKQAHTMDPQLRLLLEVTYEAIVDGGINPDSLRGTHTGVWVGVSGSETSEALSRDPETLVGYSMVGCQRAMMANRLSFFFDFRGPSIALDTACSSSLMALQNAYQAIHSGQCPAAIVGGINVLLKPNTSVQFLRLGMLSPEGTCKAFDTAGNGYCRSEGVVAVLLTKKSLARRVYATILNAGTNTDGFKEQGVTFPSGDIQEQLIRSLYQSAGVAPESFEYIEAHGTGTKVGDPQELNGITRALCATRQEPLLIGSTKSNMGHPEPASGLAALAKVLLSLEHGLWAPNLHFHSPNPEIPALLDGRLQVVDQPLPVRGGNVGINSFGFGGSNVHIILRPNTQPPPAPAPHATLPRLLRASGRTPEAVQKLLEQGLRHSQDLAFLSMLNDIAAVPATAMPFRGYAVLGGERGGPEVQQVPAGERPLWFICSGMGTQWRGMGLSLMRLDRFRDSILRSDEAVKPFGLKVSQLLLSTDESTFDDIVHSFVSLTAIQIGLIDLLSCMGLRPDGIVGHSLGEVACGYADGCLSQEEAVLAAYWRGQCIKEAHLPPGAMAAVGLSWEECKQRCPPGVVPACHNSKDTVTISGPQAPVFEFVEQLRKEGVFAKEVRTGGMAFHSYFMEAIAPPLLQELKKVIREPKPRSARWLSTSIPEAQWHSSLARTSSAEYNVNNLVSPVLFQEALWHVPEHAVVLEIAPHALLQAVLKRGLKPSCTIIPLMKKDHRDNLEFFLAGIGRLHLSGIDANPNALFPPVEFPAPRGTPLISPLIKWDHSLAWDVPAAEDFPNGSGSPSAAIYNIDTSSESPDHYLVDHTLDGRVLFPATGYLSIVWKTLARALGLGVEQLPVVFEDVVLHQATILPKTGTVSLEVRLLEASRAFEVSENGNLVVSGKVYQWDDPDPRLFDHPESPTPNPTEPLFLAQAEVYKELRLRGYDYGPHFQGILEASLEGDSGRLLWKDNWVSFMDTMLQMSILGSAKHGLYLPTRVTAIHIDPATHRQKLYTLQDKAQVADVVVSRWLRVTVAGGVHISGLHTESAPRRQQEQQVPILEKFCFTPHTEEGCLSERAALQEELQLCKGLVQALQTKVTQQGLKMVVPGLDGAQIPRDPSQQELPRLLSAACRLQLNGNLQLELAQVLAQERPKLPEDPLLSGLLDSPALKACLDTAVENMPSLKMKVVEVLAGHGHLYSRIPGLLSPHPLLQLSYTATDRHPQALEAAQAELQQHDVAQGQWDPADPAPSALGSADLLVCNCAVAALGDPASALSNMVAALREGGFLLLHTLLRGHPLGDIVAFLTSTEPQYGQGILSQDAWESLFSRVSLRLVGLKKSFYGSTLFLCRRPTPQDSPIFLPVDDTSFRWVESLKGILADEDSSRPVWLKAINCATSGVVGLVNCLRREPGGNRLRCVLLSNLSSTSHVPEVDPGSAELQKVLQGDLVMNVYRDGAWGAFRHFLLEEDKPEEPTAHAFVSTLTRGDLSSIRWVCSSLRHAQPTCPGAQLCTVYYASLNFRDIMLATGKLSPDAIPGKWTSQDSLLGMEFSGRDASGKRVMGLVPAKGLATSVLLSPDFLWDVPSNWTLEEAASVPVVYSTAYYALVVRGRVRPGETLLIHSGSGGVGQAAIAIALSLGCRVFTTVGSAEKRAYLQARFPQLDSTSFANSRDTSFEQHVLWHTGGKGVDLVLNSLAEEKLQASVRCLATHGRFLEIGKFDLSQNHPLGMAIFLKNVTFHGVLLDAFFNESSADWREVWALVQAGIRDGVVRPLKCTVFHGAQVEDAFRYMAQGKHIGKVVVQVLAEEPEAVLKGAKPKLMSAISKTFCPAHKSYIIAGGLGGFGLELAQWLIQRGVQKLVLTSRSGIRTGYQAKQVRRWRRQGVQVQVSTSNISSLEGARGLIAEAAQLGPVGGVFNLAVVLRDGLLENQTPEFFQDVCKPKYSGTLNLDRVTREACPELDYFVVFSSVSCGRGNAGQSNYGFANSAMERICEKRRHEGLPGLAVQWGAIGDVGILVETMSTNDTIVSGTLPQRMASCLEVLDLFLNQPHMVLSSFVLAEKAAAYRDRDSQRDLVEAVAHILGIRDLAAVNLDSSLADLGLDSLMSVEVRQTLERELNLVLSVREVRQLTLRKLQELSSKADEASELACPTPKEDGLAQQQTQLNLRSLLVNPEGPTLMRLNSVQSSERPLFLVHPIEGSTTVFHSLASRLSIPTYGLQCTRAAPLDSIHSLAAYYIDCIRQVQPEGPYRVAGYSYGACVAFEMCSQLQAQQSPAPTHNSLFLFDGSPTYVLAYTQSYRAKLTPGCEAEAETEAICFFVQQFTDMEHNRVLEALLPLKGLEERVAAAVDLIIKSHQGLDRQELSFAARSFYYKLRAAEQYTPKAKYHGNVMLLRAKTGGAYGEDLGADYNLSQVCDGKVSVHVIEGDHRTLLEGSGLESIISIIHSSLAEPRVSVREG
Assay: LTEA_HepaRG_FASN: Life Technologies and Expression Analysis (LTEA) Assay for Fatty Acid Synthase (FASN) using HepaRG (AID 2283448)
Conditions: mRNA level, 48 h; actives raise or lower the signal
Procedure: LTEA_HepaRG is a cell based, multiplexed-readout assay that uses HepaRG, a human liver cell line, with measurements taken at 48 hours after chemical dosing on a 96-well plate.LTEA_HepaRG_FASN is one of 102 assay component(s) measured in the LTEA HepaRG cell culture assay. It is a marker of Steatosis.Data from the assay component LTEA_HepaRG_FASN was analyzed into 1 endpoint. […]
The source made the active and inactive calls. Rule for the calls: active = hit-call score of the fitted dose curve at least 0.9, where 1 is the maximum; inactive = score below 0.9.
Labels: active, inactive

• C[C@]12CCC(=O)C=C1CC[C@@H]1[C@@H]2CC[C@]2(C)C(=O)CC[C@@H]12 = active
• CCSC(=O)N(CC)C1CCCCC1 = inactive
• O=C(NC(=O)c1c(F)cccc1F)Nc1cc(Cl)c(OC(F)(F)C(F)F)c(Cl)c1 = active
• ClC1=C(Cl)[C@]2(Cl)[C@@H]3[C@H]4C[C@H]([C@@H]5O[C@H]45)[C@@H]3[C@@]1(Cl)C2(Cl)Cl = active
• O=S(=O)(O)C(F)(F)C(F)(F)C(F)(F)C(F)(F)C(F)(F)C(F)(F)F = inactive
• O=NN(c1ccccc1)c1ccccc1 = inactive
• CC1=C2C[C@H]3[C@@H](CC=C4C[C@@H](O)CC[C@@]43C)[C@@H]2CC[C@]12O[C@@H]1C[C@H](C)CN[C@H]1[C@H]2C = inactive
• Oc1ccc(C(c2ccc(O)cc2)(C(F)(F)F)C(F)(F)F)cc1 = active
• C1CC2OC2CC1C1CO1 (stereo unspecified) = inactive
• Clc1ccc(C(Cl)(Cl)Cl)cc1 = inactive
• Cc1cc(O)ccc1Cl = inactive

---

read-out: BCL2L11 (gene 10018); assay: LTEA_HepaRG_BCL2L11: Life Technologies and Expression Analysis (LTEA) Assay for Bcl-2 (BCL2L11) gene using HepaRG (AID 2283473); conditions: mRNA level, 48 h; actives raise or lower the signal
Calls of active or inactive are those of the source. The calls were made as follows: active = hit-call score of the fitted dose curve at least 0.9, where 1 is the maximum; inactive = score below 0.9.
Classes used: active, inactive

- CCC(C)(CC)c1cc(NC(=O)c2c(OC)cccc2OC)on1: inactive
- COc1ccc(O)c(C(C)(C)C)c1: inactive
- ClC(Cl)=C(c1ccc(Cl)cc1)c1ccc(Cl)cc1: inactive
- Nn1cnnc1: inactive
- Cc1ccccc1O: inactive
- CCCCCCCCCc1ccc(O)cc1: inactive
- Clc1ccc(C(c2ccccc2Cl)C(Cl)(Cl)Cl)cc1 (stereo not drawn): inactive
- Cc1cc2c3c(c1)C(c1ccccc1)=N[C@@H](NC(=O)c1ccncc1)C(=O)N3CC2: inactive
- CO/C=C(/C(=O)OC)c1ccccc1COc1cccc(C(F)(F)F)n1: active
- O=C(O)C(F)(F)C(F)(F)C(F)(F)C(F)(F)C(F)(F)C(F)(F)C(F)(F)C(F)(F)F: active
- C=CC(=O)NCNC(=O)C=C: inactive
- ClC1=C(Cl)[C@]2(Cl)[C@@H]3[C@H]4C[C@H]([C@@H]5O[C@H]45)[C@@H]3[C@@]1(Cl)C2(Cl)Cl: inactive
- Cc1cccc([N+](=O)[O-])c1: inactive

---

read-out: Vascular cell adhesion molecule 1 (VCAM1), VCAM1 (gene 7412); test: BSK_CASM3C_VCAM1: BioMAP Diversity Plus: CASM3C Assay for Vascular cell adhesion molecule 1 (VCAM1) Biomarker Activity (AID 2283055); settings: primary human coronary artery smooth muscle cells; actives raise or lower the signal;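 further: VCAM-1 protein level quantified by ELISA on the cells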
Calls of active or inactive are those of the source. Rule for the calls: active = hit-call score of the fitted dose curve at least 0.9, where 1 is the maximum; inactive = score below 0.9.
measured-attribute: AC50

* O=S(=O)(O)C(F)(F)C(F)(F)C(F)(F)C(F)(F)C(F)(F)C(F)(F)F | inactive
* Cc1cc(-c2ccc(N)c(C)c2)ccc1N | inactive
* CCC(C)(CC)c1cc(NC(=O)c2c(OC)cccc2OC)on1 | inactive
* CC(C)(c1ccccc1)c1ccc(O)cc1 | 28.6 µM (active)
* Cc1cccc([N+](=O)[O-])c1 | inactive
* C=CC(=O)NCNC(=O)C=C | inactive
* O=C(O)C(F)(F)C(F)(F)C(F)(F)C(F)(F)C(F)(F)C(F)(F)C(F)(F)C(F)(F)F | inactive
* O=S(=O)(O)C(F)(F)C(F)(F)C(F)(F)C(F)(F)F | inactive
* Sc1ccccc1 | inactive
* Clc1ccc(C(c2ccccc2Cl)C(Cl)(Cl)Cl)cc1 (stereo not drawn) | 11.7 µM (active)
* C=CC(N)=O | inactive
* CO/C=C(/C(=O)OC)c1ccccc1COc1cccc(C(F)(F)F)n1 | inactive
* c1ccc(-c2ccccc2)cc1 | inactive

---

test system: zebrafish Estrogen Receptor (ER2a), gene 317734; experiment: ATG_zfER2a_XSP2: Attagene TRANS-FACTORIAL Multi-Species (XSP2) HepG2 Assay for zebrafish Estrogen Receptor (ER2a) (AID 2283818);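 further: hits raise reporter mRNA so AC50 reflects activation of zebrafish ER2a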
Inconclusive results are not listed. The source made the active and inactive calls. How the source made its calls: active means hit-call score of the fitted dose curve at least 0.9, where 1 is the maximum; inconclusive means response in the unintended direction; inactive means score below 0.9.
measured-attribute: AC50

- CC(C)(O)C(=O)Nc1ccc([N+](=O)[O-])c(C(F)(F)F)c1: inactive
- CC(C)(c1ccccc1)c1ccc(O)cc1: inactive
- CC(c1ccc(O)cc1)(c1ccc(O)cc1)c1ccc(O)cc1: inactive
- ClC(Cl)=C(c1ccc(Cl)cc1)c1ccc(Cl)cc1: inactive
- c1cc2ccc3cccc4ccc(c1)c2c34: inactive
- Clc1ccc(C(c2ccccc2Cl)C(Cl)(Cl)Cl)cc1 (stereo unspecified): 1580 nM (active)

---

Target: human Retinoic Acid Receptor gamma (RARg), RARG (gene 5916) (UniProt P13631)
Sequence (P13631 whole entry, looked up): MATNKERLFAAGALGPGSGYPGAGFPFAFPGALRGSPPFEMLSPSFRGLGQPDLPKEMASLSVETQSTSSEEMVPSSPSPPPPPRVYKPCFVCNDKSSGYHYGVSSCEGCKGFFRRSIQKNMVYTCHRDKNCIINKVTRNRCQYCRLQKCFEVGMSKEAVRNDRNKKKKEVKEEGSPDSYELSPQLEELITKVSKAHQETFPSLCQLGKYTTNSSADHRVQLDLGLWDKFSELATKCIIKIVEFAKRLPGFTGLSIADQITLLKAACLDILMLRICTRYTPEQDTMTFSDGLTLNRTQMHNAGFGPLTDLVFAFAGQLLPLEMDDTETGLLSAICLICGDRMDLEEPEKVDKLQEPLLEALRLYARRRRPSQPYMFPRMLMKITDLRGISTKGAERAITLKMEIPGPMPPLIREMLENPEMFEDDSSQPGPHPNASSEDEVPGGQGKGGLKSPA
Experiment: ATG_RARg_TRANS: Attagene TRANS-FACTORIAL HepG2 Assay for human Retinoic Acid Receptor gamma (RARg) (AID 2283009)
Method: ATG_TRANS is a cell-based, multiplexed-readout assay that uses HepG2, a human liver cell line, with measurements taken at 24 hours after chemical dosing in a 24-well plate.ATG_RARg_TRANS is one of 30 assay component(s) measured or calculated from the ATG_TRANS assay. […] This assay endpoint, ATG_RARg_TRANS, was analyzed in the positive analysis fitting direction relative to DMSO as the negative control and baseline of activity. […]
Inconclusive results are not listed. Activity calls are given as the source filed them. How the source made its calls: active means hit-call score of the fitted dose curve at least 0.9, where 1 is the maximum; inconclusive means response in the unintended direction; inactive means score below 0.9.
Outcomes: active, inactive

• COc1ccc(O)c(C(C)(C)C)c1 = inactive
• Clc1ccc(Cl)cc1 = inactive
• Cc1cc2c3c(c1)C(c1ccccc1)=N[C@@H](NC(=O)c1ccncc1)C(=O)N3CC2 = inactive
• ClC1=C(Cl)[C@]2(Cl)[C@@H]3[C@H]4C[C@H]([C@@H]5O[C@H]45)[C@@H]3[C@@]1(Cl)C2(Cl)Cl = active
• OCC(O)CO = inactive
• Cc1ccccc1O = inactive
• Cc1cc(O)ccc1Cl = inactive
• c1cc2ccc3cccc4ccc(c1)c2c34 = inactive
• ClC1=C(Cl)[C@]2(Cl)[C@@H]3[C@@H](Cl)[C@H]4O[C@H]4[C@@H]3C1(Cl)C2(Cl)Cl = inactive
• CCCCCCCCCc1ccc(O)cc1 = inactive
• Cc1cccc([N+](=O)[O-])c1 = inactive
